These measurements were taken from the supplement of paper PMC10724198.

# Tested on: Saccharomyces cerevisiae
# Assay method text: protein stability index of tFT-peptide fusion (C-terminal peptide) (PSI (0-1 scale)); higher = more stable (slower turnover);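 further: PSI is a weighted mean of sequencing reads over stability bins, variants kept only with over 10 reads, mCherry proximal and sfGFP distal, peptide attached via GGGS linker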
# Condition: genetic background: wild type; temperature: 30 C
Recorded protein stability index values for a group of sequences are listed next.
Lab note: record just the number, no unit beside it.

Sequence string	Target entity	Numeric result
SLLLPPRPPSPS	Saccharomyces cerevisiae	0.672
HGLLDPLSILLY	Saccharomyces cerevisiae	0.668
TAPPSISYVQAF	Saccharomyces cerevisiae	0.639

# next sequence below
Asked: Give the reported protein stability index for "GVESRSCCVFWG" (system: Saccharomyces cerevisiae).
Given back: 0.72

----------
Recorded protein stability index values for a group of sequences are listed next.
# Tested on: Saccharomyces cerevisiae
# Assay method text: protein stability index of tFT-peptide fusion (C-terminal peptide) (PSI (0-1 scale)); higher = more stable (slower turnover)
# Condition: genetic background: wild type; temperature: 37 C

Past entries and their recorded results:
Sequence string	Result
SLAPPPPLLILR	0.447
FLLAIVRGVWLA	0.112
GFVVYLLLSYLF	0.437
PLCLFPPLLVFL	0.51
SRSFWHAIVFLA	0.0963

Asked: GET /values?readout=protein stability index&item= "TLDWKFGWGGIG"
Given back: 0.645

Asked: GET /values?readout=protein stability index&item= "RQILYYRERFIP"
Given back: 0.355

Asked: GET /values?readout=protein stability index&item= "LFDYEAGEVMGG"
Given back: 0.779

Asked: GET /values?readout=protein stability index&item= "RVRNSQVVAVVG"
Given back: 0.548

Asked: GET /values?readout=protein stability index&item= "HVCKLAMFQWYF"
Given back: 0.533

Asked: GET /values?readout=protein stability index&item= "VIVKSRTTLYIS"
Given back: 0.193

Asked: GET /values?readout=protein stability index&item= "LCVWRRAIVWVG"
Given back: 0.0815

Asked: GET /values?readout=protein stability index&item= "FILLIFLSLLSP"
Given back: 0.427

Asked: GET /values?readout=protein stability index&item= "KRRKERIKIQQI"
Given back: 0.28

Asked: GET /values?readout=protein stability index&item= "VFFFFSLVNFRV"
Given back: 0.549

Asked: GET /values?readout=protein stability index&item= "SYCFCCCVLFWG"
Given back: 0.502

Asked: GET /values?readout=protein stability index&item= "LSRSAGVGVWVG"
Given back: 0.553

Asked: GET /values?readout=protein stability index&item= "MLCVFVFIWYFV"
Given back: 0.307

Asked: GET /values?readout=protein stability index&item= "PLFLLTFAITLV"
Given back: 0.229

Asked: GET /values?readout=protein stability index&item= "HSRRRRPTPQSL"
Given back: 0.61

Asked: GET /values?readout=protein stability index&item= "FGFSFLHLFIFF"
Given back: 0.457

Asked: GET /values?readout=protein stability index&item= "SLFFCIPIHSVF"
Given back: 0.524
